Recorded EC50, pseudovirus neutralization, one value per entry.
# TEST SYSTEM: BK virus VP1 protein, genotype IV (BK virus)
# METHOD SUMMARY: cell-based or functional assay
PARAMETER MEASURED: EC50, pseudovirus neutralization (nM)

INSERT INTO results (binder, parameter_measured, numeric_readout) VALUES
  ('15C10 (antibody, V domains shown) VH: EVQLLESGGGLVQPGGSLRLSCAASGFTFSSFAMSWVRQAPGKGLEWVSGISASGGTTNYADSVKGRFTISRDNSKNTLYLQMSSLRAEDTAEYYCAKDRFLEWVEGFDPWGQGILVTVSP VL: DIQMTQSPSSLSASVGDRVTITCRASQSIGRFLIWYQQKPGKAPKLLLYATSSLQSGVPARFTGSGSGTDFTLTIGSLQPEDFATYYCQQSYITPLTFGGGTKVEIK', 'EC50, pseudovirus neutralization', 0.0423),
  ('8D10 (antibody, V domains shown) VH: QVHLVESGGDLVKPGGSLRLSCVASGFTFSDYYMNWIRLPPGKGLEWISYIDSSAGAIYYADSVKGRFTVSRDDAKNSMFLHMNSLRADDTAVYYCARERRDGHKIFDYWGPGTLVTVSS VL: DIVMTQSPDSLAVSLGERATINCKSSQNILYSSNNKNYLAWYQQKAGQPPKLLIFWSSTRESGVPDRFSGSGSGTDFTLTISSLQAEDVAVYYCQQYYSSPYNFGRGTTLEIK', 'EC50, pseudovirus neutralization', 0.0894),
  ('2B9 (antibody, V domains shown) VH: EVQLLESGGGLAQPGKSLRLSCAASGFTFSGFAMSWVRQAPGKGLEWVSGISGSGDITYYADSVKGRFTISRDNSKSTLYLQMNSLGAEDTAVYYCAKDPYNWNHGVYGMDVWGQGTTVTVSS VL: DIQMTQSPSSLSASVGDRVTITCRASQSISSYLNWYQQKPGKAPKFLIYGASSLQSGVPSRFSGSGSGTDFTLTISSLQPEDFAAYYCQQSFNAPLTFGGGTKVEIK', 'EC50, pseudovirus neutralization', 0.148),
  ('8A11 (antibody, V domains shown) VH: QVQLVESGGDLVKPGGSLRLSCVASGFTFSDYYMNWIRLPPGKGLEWISYIDSSAGATYYADSVKGRFTVSRDDAKNSLFLHMNSLRAEDTAVYYCARERRSGHKIFDCWGPGTLVTVSS VL: DIVMTQSPDSLAVSLGERATINCKSSQNILYSSNNKNYLAWYQQKAGQPPKLLIFWSSTRESGVPDRFSGSGSGTDFTLTISSLQAEDVAVYYCQQYYSSPYNFGRGTTLEIK', 'EC50, pseudovirus neutralization', 0.0948),
  ('2F7 (antibody, V domains shown) VH: QVQLVESGGGLVKPGGSLRLSCVASGFTFSDYYMNWIRLPPGRGLQWISYIDSSAGAIYYADSVKGRFTVSRDDAKNSLYLQMNSLRADDTAVYYCARERRDGHKIFDWWGQGTLVTVSS VL: DIVMTQSPDSLAVSLGERATINCKSSQNILYTSNNKNYLGWYQQKAGQPPKLLIYWSSTRNSGVPDRFSGSGSGTDFTLTISSLQAEDVAVYYCHQYYSSPYTFGQGTNLEIK', 'EC50, pseudovirus neutralization', 0.0724);
